Reference source for all entries: patent US20220119518A1

Target: T1, CEACAM1 antigen (Sino Biological, Inc.) (UniProt P13688 35-428)
T1 construct: Bought antigen, coated on the ELISA plate; construct not described; also called CEACAM1 (CD66a) antigen; CD66a
T1 sequence (looked up): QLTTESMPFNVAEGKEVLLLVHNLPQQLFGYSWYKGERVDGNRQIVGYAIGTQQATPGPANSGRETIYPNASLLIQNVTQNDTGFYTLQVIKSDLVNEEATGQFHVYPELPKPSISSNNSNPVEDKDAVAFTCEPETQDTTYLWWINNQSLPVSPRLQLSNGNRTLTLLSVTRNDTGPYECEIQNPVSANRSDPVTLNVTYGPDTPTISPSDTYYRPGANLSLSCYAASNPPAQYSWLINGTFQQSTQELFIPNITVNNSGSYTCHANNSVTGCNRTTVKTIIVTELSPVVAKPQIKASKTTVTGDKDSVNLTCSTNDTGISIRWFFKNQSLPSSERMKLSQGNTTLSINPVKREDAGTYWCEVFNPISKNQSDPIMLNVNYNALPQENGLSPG
Assay: ELISA, CEACAM1 coated 100 ng/well, antibody at 0.17 ng/ml
experimental-readout: OD 450 nm (OD 450 nm)

>>> reported_value("recombinant humanized anti-CD66c antibody Protein ID 3043 (Vk8 + VH6) (antibody, V domains shown, also called hu 3043; #71) VH: QVQLVQSGAEVKKPGASMKISCKASGYSFTDYTMNWVKQAPGQNLEWIGLINPFHGGTVSNQRFKVKATLTVDVSTNTAYMELSRLRSDDTAVYYCVRGDPVRHYYALAYWGQGTLVTVSS VL: DIQMTQSPSTLSASVGDRVTITCRASENVYGTLNWYQRKPGKAPKLLIYGATNLADGMPSRFSGSGSGTEYTLTISSLQPDDFATYYCQNVLSAPYTFGGGTKLEIK")
0.08
>>> reported_value("anti-CD66c chimeric antibody 8F5 (antibody, human IgG1, V domains shown, also called chimeric 8F5; chi 8F5) VH: EVQLQQSGPELVKPGASMKISCKASGYSFTDYTMNWVKQSHGKNLEWIGLINPFHGGTVSNQRFKVKATLTVDVSSNTAYMELLSLTSDDSAVYYCVRGDPVRHYYALAYWGQGTSVTVSS VL: DIQMTQSPASLSASVGETVTITCGASENVYGTLNWYQRKQGKSPQLLIYGATNLADGMSSRFSGSGSGRQYSLKISSLHPDDVATYYCQNVLSAPYTFGGGTKLEII")
0.08
